Target: T1, 14-3-3σ, full-length, recombinant (human, UniProt P31947 1-248)
T1 sequence (looked up): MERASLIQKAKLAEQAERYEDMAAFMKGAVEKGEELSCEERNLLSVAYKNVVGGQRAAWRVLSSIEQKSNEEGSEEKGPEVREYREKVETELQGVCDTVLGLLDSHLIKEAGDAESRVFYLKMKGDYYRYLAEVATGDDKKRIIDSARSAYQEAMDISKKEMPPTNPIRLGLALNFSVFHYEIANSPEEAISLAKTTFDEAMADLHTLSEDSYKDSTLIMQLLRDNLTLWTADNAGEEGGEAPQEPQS
Experiment: ITC
Where no end group is shown, it is not given here. [ ]: non-standard residue; d: D form. pT = C[C@@H](OP(=O)(O)O)[C@H](N)C(=O)O
Endpoint name: pKd
Field pKd (float): negative decimal logarithm of the concentration in molar.

Entry KYYITGEAEGFPA[pT]V (peptide, UniProt P03372 581-595, looked up) [ERα C-terminal phospholigand (ERα-ctp, 2)] has what pKd?
7.70

All figures here come from paper PMC7169973.
